Attribute: inhibition at 22.2 µM
# TARGET_OR_TEST_SYSTEM: Agg-1 (Homo sapiens, UniProt O75173)
# Sequence (O75173 213-837): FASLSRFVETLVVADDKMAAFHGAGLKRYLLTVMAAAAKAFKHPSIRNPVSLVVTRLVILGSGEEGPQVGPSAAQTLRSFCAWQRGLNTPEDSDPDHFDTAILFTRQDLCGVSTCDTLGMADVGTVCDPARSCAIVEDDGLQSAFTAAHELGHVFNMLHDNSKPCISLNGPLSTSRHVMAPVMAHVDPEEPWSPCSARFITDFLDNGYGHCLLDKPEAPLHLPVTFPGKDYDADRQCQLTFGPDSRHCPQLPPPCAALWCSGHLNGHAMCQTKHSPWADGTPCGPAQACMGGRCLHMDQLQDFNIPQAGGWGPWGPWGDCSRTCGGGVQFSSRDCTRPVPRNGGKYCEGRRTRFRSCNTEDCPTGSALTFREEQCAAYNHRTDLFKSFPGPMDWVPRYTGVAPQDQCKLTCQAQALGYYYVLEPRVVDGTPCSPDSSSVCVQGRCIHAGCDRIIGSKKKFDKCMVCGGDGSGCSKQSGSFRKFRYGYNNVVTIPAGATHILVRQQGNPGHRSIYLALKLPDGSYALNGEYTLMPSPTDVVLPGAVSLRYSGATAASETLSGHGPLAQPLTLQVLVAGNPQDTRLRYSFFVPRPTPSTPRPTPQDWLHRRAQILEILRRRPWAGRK
# EXPERIMENTAL_DETAILS: Agg-1 FRET assay
# Assay type: biochemical
# EXPERIMENTAL_SETUP: @ 22200 nM; read-out: Agg1 %
Param answer (str): number followed by unit.

// solved cases for inhibition at 22.2 µM follow
O=C(COc1ccccc1)N[C@@H](c1ccccc1Cl)c1cc(Cl)c2cccnc2c1O    49%
O=C(COc1ccccc1)NC(c1ccccc1)c1cc(N2CCCC2)c2cccnc2c1O (stereo not drawn)    49%

Task: Request the reported inhibition at 22.2 µM associated with COc1ccc2cc(C(NC(=O)COc3ccccc3)c3cc(Cl)c4cccnc4c3O)ccc2c1 (stereo not drawn)
Result: 50%

###

Attribute: pIC50
# TARGET_OR_TEST_SYSTEM: recombinant human Aggrecanase-2 Agg2-Phe628 (Homo sapiens)
# Sequence (Q9UNA0 262-628 limits assumed): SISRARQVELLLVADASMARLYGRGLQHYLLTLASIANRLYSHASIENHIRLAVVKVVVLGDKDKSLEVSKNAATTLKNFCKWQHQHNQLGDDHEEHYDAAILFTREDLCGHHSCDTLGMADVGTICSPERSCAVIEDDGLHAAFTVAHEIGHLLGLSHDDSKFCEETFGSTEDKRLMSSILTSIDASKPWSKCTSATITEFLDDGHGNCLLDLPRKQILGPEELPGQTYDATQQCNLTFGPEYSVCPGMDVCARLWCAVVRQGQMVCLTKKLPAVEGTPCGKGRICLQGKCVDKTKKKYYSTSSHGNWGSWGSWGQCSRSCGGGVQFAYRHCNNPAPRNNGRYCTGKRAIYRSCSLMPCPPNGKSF
# EXPERIMENTAL_DETAILS: Aggrecanase 2 in vitro enzyme assay (Agg-2 FRET, quenched fluorescent peptide substrate)
# Assay type: biochemical
# Set-up: purified recombinant human Aggrecanase-2 Agg2-Phe628 (MW=41,737); This is a truncated form of full-length human aggrecanase-2; made in house; host or cells: CHO cells
# EXPERIMENTAL_SETUP: read-out: Agg2 IC50
pIC50: −log10 of the molar value.

// solved cases for pIC50 follow
O=C(COc1ccccc1)NC(c1cc2n(n1)CCC2)c1cc(Cl)c2cccnc2c1O (stereo not drawn)    ~5.60
O=C(NC(c1ccccc1Cl)c1cc(Cl)c2cccnc2c1O)OCc1ccccc1 (stereo not drawn)    ~5.60

Task: Request the reported pIC50 associated with O=C(COc1ccccc1)NC(c1ccc(-c2ccccc2)o1)c1cc(Cl)c2cccnc2c1O (stereo not drawn)
Result: < 5.30

###

# TARGET_OR_TEST_SYSTEM: recombinant human Aggrecanase-2 Agg2-Phe628 (Homo sapiens)
# EXPERIMENTAL_DETAILS: Aggrecanase 2 in vitro enzyme assay (Agg-2 FRET, quenched fluorescent peptide substrate)
# Format: biochemical
# Design: purified recombinant human Aggrecanase-2 Agg2-Phe628 (MW=41,737); This is a truncated form of full-length human aggrecanase-2; made in house; host or cells: CHO cells
# EXPERIMENTAL_SETUP: read-out: Agg2 IC50
pIC50: −log10 of the molar value.
ATTRIBUTE_MEASURED: pIC50

// solved cases for pIC50 follow
O=C(NC(c1ccccn1)c1cc(Cl)c2cccnc2c1O)OCc1ccccc1 (centres unmarked) [Example 183]    ~5.60
O=C(COc1ccccc1)NC(c1cc2ccccc2o1)c1cc(Cl)c2cccnc2c1O (centres unmarked) [Example 168]    5.92 to 6.40
O=C(CNCc1ccncc1)NC(c1ccccc1)c1cc(Cl)c2cccnc2c1O (centres unmarked) [Example 229]    < 4.96

Task: Hi! What's the reported pIC50 for O=C(NC(c1ccco1)c1cc(Cl)c2cccnc2c1O)OCc1ccccc1 (centres unmarked) on recombinant human Aggrecanase-2 Agg2-Phe628 (Homo sapiens)?
Result: < 4.70

Task: Hi! What's the reported pIC50 for CN(C)c1cc(C(NC(=O)COc2ccccc2)c2ccccc2)c(O)c2ncccc12 (centres unmarked) on recombinant human Aggrecanase-2 Agg2-Phe628 (Homo sapiens)?
Result: 4.00 to 4.48

Task: Hi! What's the reported pIC50 for O=C(NC(Cc1ccccc1)c1cc(Cl)c2cccnc2c1O)OCc1ccccc1 (centres unmarked) on recombinant human Aggrecanase-2 Agg2-Phe628 (Homo sapiens)?
Result: < 4.55

Task: Hi! What's the reported pIC50 for O=C(O)Cc1cccc(C(NC(=O)COc2ccccc2)c2cc(Cl)c3cccnc3c2O)c1 (centres unmarked) [Example 208] on recombinant human Aggrecanase-2 Agg2-Phe628 (Homo sapiens)?
Result: 5.35

Task: Hi! What's the reported pIC50 for O=C(CNCc1cccnc1)NC(c1ccccc1)c1cc(Cl)c2cccnc2c1O (centres unmarked) [Example 228] on recombinant human Aggrecanase-2 Agg2-Phe628 (Homo sapiens)?
Result: < 4.96

Task: Hi! What's the reported pIC50 for O=C(CNCc1ccc2c(c1)OCO2)NC(c1ccccc1Cl)c1cc(Cl)c2cccnc2c1O (centres unmarked) [Example 232] on recombinant human Aggrecanase-2 Agg2-Phe628 (Homo sapiens)?
Result: 5.74

Task: Hi! What's the reported pIC50 for O=C(Cc1ccccc1)NC(c1ccc(F)cc1)c1cc(Cl)c2cccnc2c1O (centres unmarked) on recombinant human Aggrecanase-2 Agg2-Phe628 (Homo sapiens)?
Result: 5.67

Task: Hi! What's the reported pIC50 for O=C(COc1ccccc1)NC(c1cc(Cl)c2cccnc2c1O)c1cccc2cccnc12 (centres unmarked) on recombinant human Aggrecanase-2 Agg2-Phe628 (Homo sapiens)?
Result: 5.66
